Could you please report measured relative viability for the items listed next?
System: SW872
ASSAY_INFO: relative viability vs DMSO control (72 h) (fraction); higher = more viable cells
REPORTED_CONDITIONS: 1.111 µM
Could you keep your reply to the number by itself?

**Query** Give the measured relative viability of `CN1CCN(c2ccc(C(=O)Nc3n[nH]c4ccc(Cc5cc(F)cc(F)c5)cc34)c(NC3CCOCC3)c2)CC1` .
**Result** 0.887

**Query** What about COc1cc(CCc2cc(NC(=O)c3ccc(N4CC(C)NC(C)C4)cc3)n[nH]2)cc(OC)c1 (stereo not drawn) ?
**Result** 0.926

**Query** Same thing, different compound: `CCN1C(=O)N(c2c(F)c(OC)cc(OC)c2F)Cc2cnc3[nH]c(CN4CCOCC4)cc3c21`
**Result** 0.911
